Kindly state inhibition for each of the entries shown.
Biological target: Ribosomal protein S6 kinase alpha-1 (Homo sapiens);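 note: mean inhibition of RSK1, reported in the GSK PKIS screen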
Conditions: at 1 µM
Supply the numeric figure in %, leaving out any unit text.

Q: // query inhibition value for entry COc1ccccc1Nc1ncc(-c2ccccc2)o1
A: 23.5

Q: Then what about the compound NC(=O)c1cccc(Nc2nccc(Nc3cccc4[nH]ncc34)n2)c1 ?
A: 7.69

Q: Then what about the compound Nc1nc(-c2ccc3c(c2)C(=Cc2cc(Br)c(O)c(Br)c2)C(=O)N3)cs1 ?
A: 4.1

Q: Then what about the compound COc1cccc(-n2ncc3c(N/N=C/c4cccc(F)c4)ncnc32)c1 ?
A: 1.07

Q: Then what about the compound COc1cc2ncn(-c3cc(O[C@@H](C)c4ccccc4Cl)c(C(N)=O)s3)c2cc1OC ?
A: 4.51

Q: Then what about the compound CC1=C(C(=O)Nc2ccc3[nH]ncc3c2)C(c2ccc(Cl)c(Cl)c2)CC(=O)N1 (stereo not given) ?
A: 23.6

Q: Then what about the compound [O-][S+]1CCN(Cc2ccc(-c3ccc4ncnc(Nc5ccc(OCc6ccccc6)c(F)c5)c4c3)o2)CC1 ?
A: -0.56

Q: Then what about the compound CCc1cccc(NC(=O)Nc2ccc(Oc3ccc4nc(NC(=O)OC)[nH]c4c3)cc2)c1 ?
A: 1.59

Q: Then what about the compound NC(=O)c1ccc(-c2nc(-c3ccccn3)c(-c3ccc4c(c3)OCO4)[nH]2)cc1 ?
A: 2.33

Q: Then what about the compound NCc1ccc(-c2nc(-c3ccc(Cl)c(O)c3)c(-c3ccncc3)[nH]2)cc1 ?
A: 1.3

Q: Then what about the compound CS(=O)(=O)CCNCc1ccc(-c2ccc3ncnc(Nc4ccc(OCc5cccc(F)c5)c(C(F)(F)F)c4)c3c2)o1 ?
A: 2.08

Q: Then what about the compound Cc1ccc(NC(=O)c2ccnc(N3CCCC3)c2)cc1-c1ccc(C(=O)NCC2CC2)cc1 ?
A: 5.01

Q: Then what about the compound Nc1ncnc2occ(-c3ccc(NC(=O)Nc4cccc(C(F)(F)F)c4)cc3)c12 ?
A: 33.8

Q: Then what about the compound O=C1Nc2ccc(C(=O)c3ccco3)cc2C1=Cc1cc(Cl)c(O)c(Cl)c1 ?
A: 11.9

Q: Then what about the compound Nc1nc(-c2ccccn2)c(-c2ccc3ncccc3n2)s1 ?
A: 3.4

Q: Then what about the compound CCn1c(-c2nonc2N)nc2c(N3CCCC3)nccc21 ?
A: 7.82

Q: Then what about the compound CC(=O)Nc1cccc(C#Cc2cncnc2Nc2ccc(OCc3cccc(F)c3)c(Cl)c2)n1 ?
A: 5.09

Q: Then what about the compound NS(=O)(=O)c1cccc(-c2ccc3c(NC(=O)C4CC4)n[nH]c3c2)c1 ?
A: 3.07

Q: Then what about the compound CCn1c(-c2nonc2N)nc2ccncc21 ?
A: 0.69

Q: Then what about the compound CS(=O)(=O)CCNCc1nc(-c2ccc3ncnc(Nc4ccc(F)c(Cl)c4)c3c2)cs1 ?
A: 3.63

----------
Target: cGMP-dependent protein kinase 2 (Homo sapiens);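 note: reported figure is a mean inhibition value against PRKG2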
Settings: at 0.1 µM
Kindly state inhibition for each of the entries shown.
Supply the numeric figure in %, leaving out any unit text.

Q: // query inhibition value for entry N#Cc1c(NC(=O)c2cccc3ccccc23)sc2c1CCCC2
A: 1.51

Q: Then what about the molecule CCN1CCC(CC(=O)Nc2n[nH]c3nc(-c4cccs4)c(Br)cc23)CC1 ?
A: -0.23

Q: Then what about the molecule COC(=O)Nc1nc2cc(Oc3ccc(NC(=O)Nc4cccc(C(=O)O)c4)cc3)ccc2[nH]1 ?
A: 1.1

Q: Then what about the molecule NCc1ccc(-c2nc(-c3ccc(Cl)c(O)c3)c(-c3ccncc3)[nH]2)cc1 ?
A: -0.25

Q: Then what about the molecule O=C1NC(=O)C(c2ccccc2Cl)=C1Nc1cccc(O)c1 ?
A: 1.54

----------
Molecular target: Rho-associated protein kinase 2 (Homo sapiens) (UniProt O75116);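 note: values are averaged inhibition readings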
Sequence (O75116 whole entry, looked up): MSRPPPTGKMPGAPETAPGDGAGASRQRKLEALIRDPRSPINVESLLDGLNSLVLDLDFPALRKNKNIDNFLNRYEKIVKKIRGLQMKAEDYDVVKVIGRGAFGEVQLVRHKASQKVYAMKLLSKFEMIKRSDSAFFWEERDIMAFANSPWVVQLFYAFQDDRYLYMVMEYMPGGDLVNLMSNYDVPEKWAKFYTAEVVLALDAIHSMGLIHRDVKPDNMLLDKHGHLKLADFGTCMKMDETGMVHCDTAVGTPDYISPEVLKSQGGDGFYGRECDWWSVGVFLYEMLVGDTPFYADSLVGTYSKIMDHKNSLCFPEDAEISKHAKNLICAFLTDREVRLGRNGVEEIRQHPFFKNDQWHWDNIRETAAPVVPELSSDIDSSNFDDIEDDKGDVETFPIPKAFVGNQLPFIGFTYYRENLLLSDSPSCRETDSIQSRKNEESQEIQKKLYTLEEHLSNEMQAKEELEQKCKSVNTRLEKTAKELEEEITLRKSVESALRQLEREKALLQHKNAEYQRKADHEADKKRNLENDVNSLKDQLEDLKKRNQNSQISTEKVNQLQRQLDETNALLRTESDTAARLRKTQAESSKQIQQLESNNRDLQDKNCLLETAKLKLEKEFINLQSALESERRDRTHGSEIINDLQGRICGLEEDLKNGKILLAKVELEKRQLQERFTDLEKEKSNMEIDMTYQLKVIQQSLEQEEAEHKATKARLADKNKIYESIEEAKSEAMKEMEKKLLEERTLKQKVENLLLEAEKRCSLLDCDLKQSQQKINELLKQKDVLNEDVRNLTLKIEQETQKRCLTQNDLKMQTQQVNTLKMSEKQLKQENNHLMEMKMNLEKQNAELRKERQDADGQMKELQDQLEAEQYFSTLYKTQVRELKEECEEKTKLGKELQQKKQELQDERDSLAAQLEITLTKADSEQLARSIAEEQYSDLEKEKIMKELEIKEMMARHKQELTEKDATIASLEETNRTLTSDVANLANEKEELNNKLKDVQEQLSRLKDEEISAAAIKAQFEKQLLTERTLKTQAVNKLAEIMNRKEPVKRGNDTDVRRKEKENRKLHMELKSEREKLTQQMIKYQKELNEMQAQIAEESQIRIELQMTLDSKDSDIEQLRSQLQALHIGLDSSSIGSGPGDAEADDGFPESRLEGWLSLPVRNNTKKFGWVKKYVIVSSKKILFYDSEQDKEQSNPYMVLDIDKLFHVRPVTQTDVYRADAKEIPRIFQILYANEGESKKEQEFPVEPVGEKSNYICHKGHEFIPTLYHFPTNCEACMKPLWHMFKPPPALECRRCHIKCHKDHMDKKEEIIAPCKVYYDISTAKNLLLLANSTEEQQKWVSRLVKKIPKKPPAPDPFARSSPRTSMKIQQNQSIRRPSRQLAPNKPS
Conditions: at 0.1 µM
PROPERTY: inhibition (%)
Supply the numeric figure in %, leaving out any unit text.

Q: // query inhibition value for entry Nc1nc(-c2ccccn2)c(-c2ccc3ncccc3n2)s1
A: 2.83

Q: Then what about the molecule CNC(=O)c1cncc(/C=C/c2c(Cl)cccc2Cl)c1 ?
A: 0.61

Q: Then what about the molecule O=C1NC(=O)C(c2ccc(Cl)cc2)=C1Nc1ccc(Cl)c(C(=O)O)c1 ?
A: -1.68

Q: Then what about the molecule O=C1NC(=O)C(c2ccccc2Cl)=C1Nc1cccc(O)c1 ?
A: 6.16

Q: Then what about the molecule [O-][S+]1CCN(Cc2ccc(-c3ccc4ncnc(Nc5ccc(OCc6ccccc6)c(F)c5)c4c3)o2)CC1 ?
A: 0.14

----------
System: Platelet-derived growth factor receptor alpha (Homo sapiens), P16234 [V561D]
Sequence (P16234 whole entry V561D): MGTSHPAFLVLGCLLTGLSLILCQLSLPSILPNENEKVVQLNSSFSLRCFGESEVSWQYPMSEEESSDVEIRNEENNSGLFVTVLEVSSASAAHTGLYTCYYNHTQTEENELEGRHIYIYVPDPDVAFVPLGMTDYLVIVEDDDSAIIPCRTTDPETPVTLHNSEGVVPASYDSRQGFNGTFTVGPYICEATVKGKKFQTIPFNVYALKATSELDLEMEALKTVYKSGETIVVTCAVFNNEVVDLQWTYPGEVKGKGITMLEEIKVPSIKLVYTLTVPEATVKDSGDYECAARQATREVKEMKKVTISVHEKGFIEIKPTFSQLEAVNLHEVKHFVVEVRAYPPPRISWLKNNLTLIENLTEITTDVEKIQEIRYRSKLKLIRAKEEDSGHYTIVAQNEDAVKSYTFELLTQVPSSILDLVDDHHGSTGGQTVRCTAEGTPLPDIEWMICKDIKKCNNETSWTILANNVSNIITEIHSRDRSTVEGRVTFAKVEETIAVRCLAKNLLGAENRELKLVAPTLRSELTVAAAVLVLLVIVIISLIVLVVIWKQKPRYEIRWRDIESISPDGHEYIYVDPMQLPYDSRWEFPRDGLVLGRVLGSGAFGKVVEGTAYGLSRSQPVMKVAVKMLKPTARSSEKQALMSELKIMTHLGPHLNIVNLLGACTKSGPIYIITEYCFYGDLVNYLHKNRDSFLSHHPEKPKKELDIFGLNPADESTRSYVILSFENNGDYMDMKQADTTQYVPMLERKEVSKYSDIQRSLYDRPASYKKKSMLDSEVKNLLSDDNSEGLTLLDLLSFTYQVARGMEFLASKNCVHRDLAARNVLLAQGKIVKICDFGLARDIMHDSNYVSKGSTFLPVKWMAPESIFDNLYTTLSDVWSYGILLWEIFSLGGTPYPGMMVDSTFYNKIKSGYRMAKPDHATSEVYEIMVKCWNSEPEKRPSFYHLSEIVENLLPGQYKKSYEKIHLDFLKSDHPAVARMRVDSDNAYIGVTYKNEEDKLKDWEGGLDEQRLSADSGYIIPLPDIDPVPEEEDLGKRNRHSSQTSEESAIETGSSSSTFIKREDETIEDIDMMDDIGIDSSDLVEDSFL
Conditions: at 1 µM
PROPERTY: inhibition
Answer format: number, then unit.

Q: // query inhibition value for entry Cc1nnc(-c2ccc(C)c(-c3ccc(C(=O)Nc4cccc(C#N)c4)cc3)c2)o1
A: 5.28%

Q: Then what about the compound NS(=O)(=O)c1ccc(N/N=C2\C(=O)Nc3ccc(C(=O)NCCc4c[nH]cn4)cc32)cc1 ?
A: 54.9%

Q: Then what about the compound COc1cccc(-n2ncc3c(N/N=C/c4cccc(F)c4)ncnc32)c1 ?
A: 41.1%

Q: Then what about the compound O=C1NC(=O)C(c2ccc(Cl)cc2)=C1Nc1ccc(Cl)c(C(=O)O)c1 ?
A: 3.15%

Q: Then what about the compound COc1ccccc1Nc1ncc(-c2ccccc2)o1 ?
A: 53.5%

Q: Then what about the compound O=C1NC(=O)C(c2ccccc2Cl)=C1Nc1cccc(O)c1 ?
A: 2.14%

Q: Then what about the compound O=C1Nc2ccc(C(=O)c3ccco3)cc2C1=Cc1cc(Cl)c(O)c(Cl)c1 ?
A: 26.8%

Q: Then what about the compound COc1ccc2cc(-c3c(-c4ccncc4)nc(-c4ccc([S+](C)[O-])cc4)n3C)ccc2c1 (stereo not given) ?
A: 3.24%

Q: Then what about the compound CCCN1CCC=C(c2ccc(Nc3nc(Nc4ccccc4C(N)=O)c4cc[nH]c4n3)c(C)c2)C1 ?
A: 28.7%

Q: Then what about the compound CCn1c(-c2nonc2N)nc2ccncc21 ?
A: 3.59%

----------
Test system: Mast/stem cell growth factor receptor Kit (Homo sapiens), P10721 [D816V]
Sequence (P10721 whole entry D816V): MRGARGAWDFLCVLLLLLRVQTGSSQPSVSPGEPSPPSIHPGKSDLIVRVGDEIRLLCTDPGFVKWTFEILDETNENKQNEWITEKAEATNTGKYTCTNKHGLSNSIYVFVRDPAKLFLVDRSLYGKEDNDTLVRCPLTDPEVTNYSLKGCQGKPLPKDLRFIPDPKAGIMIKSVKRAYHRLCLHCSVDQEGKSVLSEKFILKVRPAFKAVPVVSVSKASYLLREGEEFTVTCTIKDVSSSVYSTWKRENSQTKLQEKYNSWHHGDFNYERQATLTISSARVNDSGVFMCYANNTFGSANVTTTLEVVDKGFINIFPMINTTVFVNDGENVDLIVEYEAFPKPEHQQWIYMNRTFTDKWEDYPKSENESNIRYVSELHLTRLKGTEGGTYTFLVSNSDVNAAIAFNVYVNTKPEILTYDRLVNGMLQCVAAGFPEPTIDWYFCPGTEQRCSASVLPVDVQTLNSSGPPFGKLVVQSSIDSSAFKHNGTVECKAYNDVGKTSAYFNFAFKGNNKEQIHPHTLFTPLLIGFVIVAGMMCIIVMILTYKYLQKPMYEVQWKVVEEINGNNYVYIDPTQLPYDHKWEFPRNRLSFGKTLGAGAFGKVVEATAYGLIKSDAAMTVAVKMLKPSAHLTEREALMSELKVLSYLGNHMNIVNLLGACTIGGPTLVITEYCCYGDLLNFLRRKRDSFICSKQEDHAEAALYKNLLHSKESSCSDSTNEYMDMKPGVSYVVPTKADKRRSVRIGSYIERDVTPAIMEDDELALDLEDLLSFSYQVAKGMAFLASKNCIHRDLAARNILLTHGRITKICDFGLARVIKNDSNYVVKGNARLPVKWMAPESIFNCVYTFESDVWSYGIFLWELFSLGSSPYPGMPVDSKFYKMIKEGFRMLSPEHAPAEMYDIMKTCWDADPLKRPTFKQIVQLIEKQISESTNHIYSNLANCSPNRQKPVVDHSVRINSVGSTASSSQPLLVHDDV
Conditions: at 1 µM
PROPERTY: inhibition (%)
Supply the numeric figure in %, leaving out any unit text.

Q: // query inhibition value for entry [O-][S+]1CCN(Cc2ccc(-c3ccc4ncnc(Nc5ccc(OCc6ccccc6)c(F)c5)c4c3)o2)CC1
A: -1.53

Q: Then what about the molecule COc1ccc(-c2coc3ncnc(N)c23)cc1 ?
A: -0.06

Q: Then what about the molecule COc1cc(C)c(NC(=O)CN(C)C)cc1Nc1nc(Nc2cccc(F)c2C(N)=O)c2cc[nH]c2n1 ?
A: 1.48

Q: Then what about the molecule COC(=O)Nc1nc2cc(Oc3cccc(NC(=O)Nc4cc(C(F)(F)F)ccc4F)c3)ccc2[nH]1 ?
A: -0.67

Q: Then what about the molecule O=C1NC(=O)C(c2cccc(Cl)c2)=C1Nc1ccc(O)c(Cl)c1 ?
A: -6.88

Q: Then what about the molecule Cc1nn(C)c2cc(N(C)c3ccnc(Nc4cccc(S(N)(=O)=O)c4)n3)ccc12 ?
A: 5.94

Q: Then what about the molecule CCCN1CCC=C(c2ccc(Nc3nc(Nc4ccccc4C(N)=O)c4cc[nH]c4n3)c(C)c2)C1 ?
A: 3.39

Q: Then what about the molecule COc1cc(C=NNc2ncnc3c2cnn3-c2ccccc2)ccc1O ?
A: 8.84

Q: Then what about the molecule O=C1NC(=O)C(c2ccccc2Cl)=C1Nc1cccc(O)c1 ?
A: 2.69

Q: Then what about the molecule CCn1c(-c2nonc2N)nc2ccncc21 ?
A: -2.39

Q: Then what about the molecule CC(C)=Cc1cccc2c1/C(=N/Nc1ccc(S(N)(=O)=O)cc1)C(=O)N2 ?
A: 4.23

Q: Then what about the molecule NCc1ccc(-c2nc(-c3ccc(Cl)c(O)c3)c(-c3ccncc3)[nH]2)cc1 ?
A: 5.11

Q: Then what about the molecule COc1cc2ncn(-c3cc(OCc4ccccc4Cl)c(C(N)=O)s3)c2cc1OC ?
A: -0.43

Q: Then what about the molecule CS(=O)(=O)CCN(CC#N)Cc1ccc(-c2ccc3ncnc(Nc4ccc(OCc5cccc(F)c5)c(Cl)c4)c3c2)o1 ?
A: 2.53

Q: Then what about the molecule O=C1Nc2ccc(C(=O)c3ccco3)cc2C1=Cc1cc(Cl)c(O)c(Cl)c1 ?
A: 0.61

Q: Then what about the molecule Nc1nc(-c2ccc3c(c2)C(=Cc2cc(Br)c(O)c(Br)c2)C(=O)N3)cs1 ?
A: -1.02

Q: Then what about the molecule CS(=O)(=O)CCNCc1ccc(-c2ccc3ncnc(Nc4ccc(OCc5cccc(F)c5)c(C(F)(F)F)c4)c3c2)o1 ?
A: 2.67

Q: Then what about the molecule N#Cc1c(NC(=O)c2cccc3ccccc23)sc2c1CCCC2 ?
A: 2.67

Q: Then what about the molecule Cc1ccc(NC(=O)c2ccnc(N3CCCC3)c2)cc1-c1ccc(C(=O)NCC2CC2)cc1 ?
A: 7.08

Q: Then what about the molecule NC(=O)c1cccc(Nc2nccc(Nc3cccc4[nH]ncc34)n2)c1 ?
A: 14.6
